Record form. Attribute: pIC50. Fill in for each entry.
assayed target: UniProt:P00690
Sequence (P00690 16-511): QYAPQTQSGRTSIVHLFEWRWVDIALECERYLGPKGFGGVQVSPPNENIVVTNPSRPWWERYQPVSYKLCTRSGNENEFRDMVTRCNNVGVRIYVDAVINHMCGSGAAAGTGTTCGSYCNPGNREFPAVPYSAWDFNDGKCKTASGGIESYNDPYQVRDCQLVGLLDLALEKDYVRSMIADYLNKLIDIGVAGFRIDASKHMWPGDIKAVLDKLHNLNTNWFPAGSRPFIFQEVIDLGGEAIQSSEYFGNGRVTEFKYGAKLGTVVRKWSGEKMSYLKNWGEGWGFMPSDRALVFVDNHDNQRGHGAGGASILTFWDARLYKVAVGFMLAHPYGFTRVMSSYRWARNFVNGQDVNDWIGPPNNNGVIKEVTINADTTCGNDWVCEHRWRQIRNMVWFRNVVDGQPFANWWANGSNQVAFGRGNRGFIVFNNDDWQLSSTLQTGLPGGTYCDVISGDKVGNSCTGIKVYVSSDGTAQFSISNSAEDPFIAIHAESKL
Answers are plain numbers, as −log10 of the molar value.

Worked cases, answers included:
C[C@@H]1O[C@@H](OC[C@H]2O[C@@H](Oc3c(-c4ccc(O)c(O)c4)oc4cc(O)cc(O)c4c3=O)[C@H](O)[C@@H](O)[C@@H]2O)[C@H](O)[C@H](O)[C@H]1O [rutin]; 4.73
O=c1c(O[C@@H]2O[C@H](CO)[C@@H](O)[C@H](O)[C@H]2O)c(-c2ccc(O)c(O)c2)oc2cc(O)cc(O)c12 [isoquercitrin, quercetin-3-β-qlucoside]; 4.68
O=C(/C=C/c1ccc(O)c(O)c1)O[C@@H]1C[C@](O)(C(=O)O)C[C@@H](O)[C@H]1O [chlorogenic acid]; 5.28
O=C(/C=C/c1ccc(O)c(O)c1)O[C@H](Cc1ccc(O)c(O)c1)C(=O)O [rosmarinic acid]; 5.59

Pending compound:
query: Consider the compound shown here: O=c1cc(-c2ccc(O)c(O)c2)oc2cc(O)cc(O)c12 [luteolin] What is its recorded pIC50?
result: 4.17

* * *

assayed target: LOX (Glycine max, UniProt P08170)
Sequence (P08170 whole entry): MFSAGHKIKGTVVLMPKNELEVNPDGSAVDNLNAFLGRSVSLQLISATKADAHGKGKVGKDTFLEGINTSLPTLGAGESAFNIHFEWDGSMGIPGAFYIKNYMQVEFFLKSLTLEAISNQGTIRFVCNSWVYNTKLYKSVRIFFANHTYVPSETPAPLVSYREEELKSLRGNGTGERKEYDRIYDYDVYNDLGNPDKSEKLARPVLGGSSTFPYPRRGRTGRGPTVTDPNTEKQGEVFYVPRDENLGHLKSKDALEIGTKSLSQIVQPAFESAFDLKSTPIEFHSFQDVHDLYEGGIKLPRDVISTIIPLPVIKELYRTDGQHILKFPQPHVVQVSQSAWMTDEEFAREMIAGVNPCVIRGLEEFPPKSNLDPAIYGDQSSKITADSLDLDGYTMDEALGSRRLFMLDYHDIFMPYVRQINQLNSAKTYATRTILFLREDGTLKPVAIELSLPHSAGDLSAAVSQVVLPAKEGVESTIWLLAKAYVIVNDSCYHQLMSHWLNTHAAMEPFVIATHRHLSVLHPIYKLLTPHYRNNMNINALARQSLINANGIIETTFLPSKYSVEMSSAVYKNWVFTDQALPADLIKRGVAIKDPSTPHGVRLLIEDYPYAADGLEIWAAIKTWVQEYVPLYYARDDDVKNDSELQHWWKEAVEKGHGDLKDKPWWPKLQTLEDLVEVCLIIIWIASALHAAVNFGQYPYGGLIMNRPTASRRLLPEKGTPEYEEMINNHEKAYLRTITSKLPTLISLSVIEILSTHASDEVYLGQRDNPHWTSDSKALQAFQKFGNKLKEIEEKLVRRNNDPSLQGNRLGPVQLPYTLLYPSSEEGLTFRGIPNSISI
assay protocol: LOX inhibition, spectrophotometric assay
Type: biochemical
pIC50: −log10 of the molar value.
pIC50 vs 4: at or above is Yes, below is No.

Check out these entries, answers already filled in.
C[C@@H]1O[C@@H](OC[C@H]2O[C@@H](Oc3c(-c4ccc(O)c(O)c4)oc4cc(O)cc(O)c4c3=O)[C@H](O)[C@@H](O)[C@@H]2O)[C@H](O)[C@H](O)[C@H]1O; Yes
O=C(/C=C/c1ccc(O)c(O)c1)O[C@H](Cc1ccc(O)c(O)c1)C(=O)O; No
O=C(/C=C/c1ccc(O)c(O)c1)O[C@@H]1C[C@](O)(C(=O)O)C[C@@H](O)[C@H]1O; No

Now look at this entry.
query: Given O=c1c(O[C@@H]2O[C@H](CO)[C@@H](O)[C@H](O)[C@H]2O)c(-c2ccc(O)c(O)c2)oc2cc(O)cc(O)c12 [isoquercitrin, quercetin-3-β-qlucoside] , state whether its pIC50 is at least 4.
result: No

* * *

Record form. Attribute: pIC50. Fill in for each entry.
assayed target: α-glucosidase from Saccharomyces cerevisiae (Saccharomyces cerevisiae, UniProt P53341)
Sequence (P53341 whole entry): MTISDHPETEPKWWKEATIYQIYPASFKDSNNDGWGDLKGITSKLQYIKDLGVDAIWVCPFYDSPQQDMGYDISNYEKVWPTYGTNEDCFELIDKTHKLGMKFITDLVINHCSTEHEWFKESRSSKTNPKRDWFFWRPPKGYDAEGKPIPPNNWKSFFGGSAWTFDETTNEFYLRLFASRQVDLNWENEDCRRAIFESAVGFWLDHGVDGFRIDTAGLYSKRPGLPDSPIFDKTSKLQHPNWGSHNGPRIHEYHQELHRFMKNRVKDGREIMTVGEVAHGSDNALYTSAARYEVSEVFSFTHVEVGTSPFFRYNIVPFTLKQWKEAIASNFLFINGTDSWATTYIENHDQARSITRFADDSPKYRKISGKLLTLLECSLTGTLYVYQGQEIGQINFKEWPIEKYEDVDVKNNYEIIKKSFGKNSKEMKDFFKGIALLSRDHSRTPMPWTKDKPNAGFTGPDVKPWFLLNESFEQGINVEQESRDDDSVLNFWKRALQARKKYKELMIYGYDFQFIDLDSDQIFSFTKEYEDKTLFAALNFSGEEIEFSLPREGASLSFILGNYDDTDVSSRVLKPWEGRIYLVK
Give bare numbers, as −log10 of the molar value.

O=C(/C=C/c1ccc(O)c(O)c1)O[C@H](Cc1ccc(O)c(O)c1)C(=O)O [rosmarinic acid]; 4.92

Please supply pIC50 for each of the following items, keeping them in order.
1. O=c1c(O[C@@H]2O[C@H](CO)[C@@H](O)[C@H](O)[C@H]2O)c(-c2ccc(O)c(O)c2)oc2cc(O)cc(O)c12 [isoquercitrin, quercetin-3-β-qlucoside]
2. C[C@@H]1O[C@@H](OC[C@H]2O[C@@H](Oc3c(-c4ccc(O)c(O)c4)oc4cc(O)cc(O)c4c3=O)[C@H](O)[C@@H](O)[C@@H]2O)[C@H](O)[C@H](O)[C@H]1O [rutin]
3. O=c1cc(-c2ccc(O)c(O)c2)oc2cc(O)cc(O)c12 [luteolin]

result:
4.77
4.97
4.00
